Recorded switch fluorescence ratio for the following sequences
Test system: ATP;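 also: ATP exposure 15 min at 22 °C before imaging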
measurement-notes: switch fluorescence ratio, 500 uM ATP over buffer (Cy3 cluster intensity, sum of 5 cycles each) (fold (ratio)); higher = stronger signal-on switching upon ATP binding; sequences stand for … in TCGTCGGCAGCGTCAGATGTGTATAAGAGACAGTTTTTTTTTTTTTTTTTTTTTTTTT…TC
measurement-setup: aptamer strand: ATP DNA aptamer (quencher-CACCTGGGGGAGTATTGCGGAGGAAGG + anchor), 100 nM annealed; ATP concentration: 500 uM

residue-string	switch fluorescence ratio
TTTTTGTCCA	1
GGCGGAGGGT	0.986
TGGCGTGTCA	1.02
TGGATAAGTT	1.03
TTTGGACGGG	0.995
AGCTAACGAC	1.83
GTGCTGGGCG	0.994
TAAAAGGACC	1.09
